Entry source: ChEMBL document CHEMBL5608193

# target.or.test.system: CDK7/Cyclin H/MNAT1 (Homo sapiens)
# assay.remarks: Inhibition of CDK7/CycH/MNAT1 (unknown origin) assessed as change in TR-FRET ratio using Cdk7/9tide as substrate and ATP by in vitro Adapta Eu kinase assay
# Format: protein-complex assay
measured.endpoint: IC50 (nM)

compound | reported.value
CC(=O)N[C@H](C(=O)N1C[C@H](O)C[C@H]1C(=O)N[C@@H](C)c1ccc(-c2scnc2C(=O)NCCCCCNC(=O)c2ccc(C(=O)Nc3n[nH]c4c3CN(C(=O)N[C@H](CN(C)C)c3ccccc3)C4(C)C)cc2)cc1)C(C)(C)C | 8.6
Cc1ncsc1-c1ccc([C@H](C)NC(=O)[C@@H]2C[C@@H](O)CN2C(=O)[C@@H](NC(=O)CCCNC(=O)c2ccc(C(=O)Nc3n[nH]c4c3CN(C(=O)N[C@H](CN(C)C)c3ccccc3)C4(C)C)cc2)C(C)(C)C)cc1 | 5.6

I: Cc1ncsc1-c1ccc([C@H](C)NC(=O)[C@@H]2C[C@@H](O)CN2C(=O)[C@@H](NC(=O)CCOCCOCCNC(=O)c2ccc(C(=O)Nc3n[nH]c4c3CN(C(=O)N[C@H](CN(C)C)c3ccccc3)C4)cc2)C(C)(C)C)cc1
II: Cc1ncsc1-c1ccc(CNC(=O)C2[C@@H](O)CCN2C(=O)C(NC(=O)C2(F)CC2)C(C)(C)C)c(OCCOCCOCCNC(=O)c2ccc(C(=O)Nc3n[nH]c4c3CN(C(=O)N[C@H](CN(C)C)c3ccccc3)C4(C)C)cc2)c1 (some centres undefined)
// returns I or II , whichever has the lower IC50 Use the label to indicate which entry you chose.
I

---

# assay.remarks: Observed clearance in male CD1 mouse at 10 mg/kg, IP measured upto 24 hrs by LC-MS/MS-39 analysis
# Assay type: ADME, organism-based
# experimental.conditions: in vivo
measured.endpoint: CL/F (mL/min/kg)
Answer with a number only, understood to be in mL/min/kg.

What does the record list as CL/F for `Cc1ncsc1-c1ccc([C@H](C)NC(=O)[C@@H]2C[C@@H](O)CN2C(=O)[C@@H](NC(=O)CCCC#Cc2ccc(C(=O)Nc3n[nH]c4c3CN(C(=O)N[C@H](CN(C)C)c3ccccc3)C4(C)C)cc2)C(C)(C)C)cc1` ?
8.7

---

# target.or.test.system: CDK7/Cyclin H/MNAT1 (Homo sapiens, UniProt P50613)
# Sequence (P51946 whole entry): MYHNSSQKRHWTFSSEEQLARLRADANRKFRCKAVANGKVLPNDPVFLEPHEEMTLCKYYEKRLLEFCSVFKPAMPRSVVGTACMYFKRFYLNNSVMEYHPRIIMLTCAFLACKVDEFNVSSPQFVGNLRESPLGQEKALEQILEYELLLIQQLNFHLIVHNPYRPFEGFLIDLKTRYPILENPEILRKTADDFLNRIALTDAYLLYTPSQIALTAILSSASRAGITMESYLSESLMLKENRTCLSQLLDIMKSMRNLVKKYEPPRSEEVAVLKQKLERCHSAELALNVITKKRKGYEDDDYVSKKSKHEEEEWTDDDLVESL
# Sequence (P50613 whole entry): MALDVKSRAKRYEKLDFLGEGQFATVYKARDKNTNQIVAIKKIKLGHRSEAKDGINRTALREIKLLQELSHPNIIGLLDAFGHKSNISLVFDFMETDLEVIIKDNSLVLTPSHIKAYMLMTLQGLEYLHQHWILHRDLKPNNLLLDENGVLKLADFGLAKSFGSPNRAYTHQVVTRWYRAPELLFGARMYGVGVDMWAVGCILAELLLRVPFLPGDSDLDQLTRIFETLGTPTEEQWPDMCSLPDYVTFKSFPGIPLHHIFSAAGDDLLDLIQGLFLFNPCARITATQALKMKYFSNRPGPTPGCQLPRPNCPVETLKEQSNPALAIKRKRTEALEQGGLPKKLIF
# Sequence (P51948 whole entry, further chain): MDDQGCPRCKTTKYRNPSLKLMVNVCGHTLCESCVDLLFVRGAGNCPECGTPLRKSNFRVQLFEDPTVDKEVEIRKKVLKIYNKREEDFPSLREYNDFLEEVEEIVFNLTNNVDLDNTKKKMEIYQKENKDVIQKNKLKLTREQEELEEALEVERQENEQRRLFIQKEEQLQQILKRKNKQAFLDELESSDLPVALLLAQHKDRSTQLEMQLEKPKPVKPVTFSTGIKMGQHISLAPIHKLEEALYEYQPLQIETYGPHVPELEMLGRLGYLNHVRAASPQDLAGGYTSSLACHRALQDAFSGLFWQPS
# assay.remarks: Inhibition of CDK7/CycH/MNAT1 (unknown origin) assessed as change in TR-FRET ratio using Cdk7/9tide as substrate and ATP by in vitro Adapta Eu kinase assay
# Type: protein-complex assay
measured.endpoint: IC50 (nM)

// below: answered molecules
molecule | reading.unit | reported.value
Cc1ncsc1-c1ccc([C@H](C)NC(=O)[C@@H]2C[C@@H](O)CN2C(=O)[C@@H](NC(=O)CCCCCNC(=O)c2ccc(C(=O)Nc3n[nH]c4c3CN(C(=O)N[C@H](CN(C)C)c3ccccc3)C4(C)C)cc2)C(C)(C)C)cc1 | nM | 8.1
CN(C)C[C@@H](NC(=O)N1Cc2c(NC(=O)c3ccc(C(=O)NCCOCCOCCNc4cccc5c4C(=O)N(C4CCC(=O)NC4=O)C5=O)cc3)n[nH]c2C1(C)C)c1ccccc1 (stereo not given in full) | nM | 6.4
CN(C)C[C@@H](NC(=O)N1Cc2c(NC(=O)c3ccc(C(=O)NCCCCCCNc4cccc5c4C(=O)N(C4CCC(=O)NC4=O)C5=O)cc3)n[nH]c2C1(C)C)c1ccccc1 (stereo not given in full) | nM | 9.4

a: CN(C)C[C@@H](NC(=O)N1Cc2c(NC(=O)c3ccc(C(=O)NCCCCC#Cc4cccc5c4C(=O)N(C4CCC(=O)NC4=O)C5=O)cc3)n[nH]c2C1(C)C)c1ccccc1 (stereo not given in full)
b: CN(C)C[C@@H](NC(=O)N1Cc2c(NC(=O)c3ccc(C(=O)NCCNc4cccc5c4C(=O)N(C4CCC(=O)NC4=O)C5=O)cc3)n[nH]c2C1(C)C)c1ccccc1 (stereo not given in full)
Which of the two gives a bigger number for IC50: a or b ? Kindly state the label of the option you pick.
a
(a: 13.3 nM, b: 6.7 nM)

---

# target.or.test.system: CDK7/Cyclin H/MNAT1 (Homo sapiens, UniProt P50613)
# assay.remarks: Inhibition of CDK7/CycH/MNAT1 (unknown origin) assessed as change in TR-FRET ratio using Cdk7/9tide as substrate and ATP by in vitro Adapta Eu kinase assay
# Type: protein-complex assay
measured.endpoint: IC50 (nM)

record.smiles | reported.value
Cc1ncsc1-c1ccc([C@H](C)NC(=O)[C@@H]2C[C@@H](O)CN2C(=O)[C@@H](NC(=O)CCOCCNC(=O)c2ccc(C(=O)Nc3n[nH]c4c3CN(C(=O)N[C@H](CN(C)C)c3ccccc3)C4(C)C)cc2)C(C)(C)C)cc1 | 11.1

I: Cc1ncsc1-c1ccc([C@H](C)NC(=O)[C@@H]2C[C@@H](O)CN2C(=O)[C@@H](NC(=O)CCNC(=O)c2ccc(C(=O)Nc3n[nH]c4c3CN(C(=O)N[C@H](CN(C)C)c3ccccc3)C4(C)C)cc2)C(C)(C)C)cc1
II: Cc1ncsc1-c1ccc([C@H](C)NC(=O)[C@@H]2C[C@@H](O)CN2C(=O)[C@@H](NC(=O)CCCCOc2ccc(C(=O)Nc3n[nH]c4c3CN(C(=O)N[C@H](CN(C)C)c3ccccc3)C4(C)C)cc2)C(C)(C)C)cc1
Returns the identifier with the smallest measured IC50 among I and II . # reply format: chosen label
I
(I: 8.7 nM, II: 12.6 nM)

---

# target.or.test.system: von Hippel-Lindau disease tumor suppressor/Cyclin-dependent kinase 7 (Homo sapiens) (UniProt P50613+P40337)
# Sequence (P40337 whole entry, looked up): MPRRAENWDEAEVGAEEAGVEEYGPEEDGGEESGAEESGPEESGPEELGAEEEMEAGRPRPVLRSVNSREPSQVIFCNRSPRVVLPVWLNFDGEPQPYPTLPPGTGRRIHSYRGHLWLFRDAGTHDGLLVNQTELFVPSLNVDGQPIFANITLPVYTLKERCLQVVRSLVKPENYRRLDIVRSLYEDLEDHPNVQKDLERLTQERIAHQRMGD
# Sequence (P50613 whole entry, looked up): as the sequence (P50613 whole entry) above
# assay.remarks: PROTAC activity at CDK7/VHL in human Jurkat cells assessed as degradation of CDK7 at 1 uM measured after 16 hrs incubation by immunoblot analysis relative to control
# Assay type: cell-based
Activity calls are given as the source filed them. The rule behind the calls is not given here.
measured.endpoint: Activity

record.smiles | reported.value
Cc1ncsc1-c1ccc([C@H](C)NC(=O)[C@@H]2C[C@@H](O)CN2C(=O)[C@@H](NC(=O)CCCNC(=O)c2ccc(C(=O)Nc3n[nH]c4c3CN(C(=O)N[C@H](CN(C)C)c3ccccc3)C4(C)C)cc2)C(C)(C)C)cc1 | Active
Cc1ncsc1-c1ccc([C@H](C)NC(=O)[C@@H]2C[C@@H](O)CN2C(=O)[C@@H](NC(=O)CCOCCNC(=O)c2ccc(C(=O)Nc3n[nH]c4c3CN(C(=O)N[C@H](CN(C)C)c3ccccc3)C4(C)C)cc2)C(C)(C)C)cc1 | Active

---

# assay.remarks: AUClast in male CD1 mouse at 3 mg/kg, IV measured upto 24 hrs by LC-MS/MS-39 analysis
# Type: ADME, organism-based
# experimental.conditions: in vivo
measured.endpoint: AUClast (µM·h)
The reply should be a number in µM·h, with the unit left off.

So what does the record say about AUClast for `Cc1ncsc1-c1ccc([C@H](C)NC(=O)[C@@H]2C[C@@H](O)CN2C(=O)[C@@H](NC(=O)CCCC#Cc2ccc(C(=O)Nc3n[nH]c4c3CN(C(=O)N[C@H](CN(C)C)c3ccccc3)C4(C)C)cc2)C(C)(C)C)cc1` ?
6.12

---

# target.or.test.system: CDK7/Cyclin H/MNAT1 (Homo sapiens)
# assay.remarks: Inhibition of CDK7/CycH/MAT1 (unknown origin)
# Set-up: species or system Sf9
measured.endpoint: pIC50
Quick note: pIC50 values are minus log10 of concentrations in mol/L.

Name the reported pIC50 value associated with the molecule `CCC(=O)Nc1ccc(C(=O)Nc2n[nH]c3c2CN(C(=O)N[C@@H](CN(C)C)c2ccccc2)C3(C)C)cc1`
8.17

---

# assay.remarks: Cmax in male CD1 mouse at 10 mg/kg, IP measured upto 24 hrs by LC-MS/MS-39 analysis
# Assay type: ADME, organism-based
# experimental.conditions: in vivo
measured.endpoint: Cmax (µM)
Write the answer as a number in µM, unit excluded.

# get_value(readout='Cmax', item= `Cc1ncsc1-c1ccc([C@H](C)NC(=O)[C@@H]2C[C@@H](O)CN2C(=O)[C@@H](NC(=O)CCCC#Cc2ccc(C(=O)Nc3n[nH]c4c3CN(C(=O)N[C@H](CN(C)C)c3ccccc3)C4(C)C)cc2)C(C)(C)C)cc1` )
3.39

---

# target.or.test.system: CDK7/Cyclin H/MNAT1 (Homo sapiens)
# assay.remarks: Inhibition of CDK7/CycH/MNAT1 (unknown origin) assessed as change in TR-FRET ratio using Cdk7/9tide as substrate and ATP by in vitro Adapta Eu kinase assay
# Assay type: protein-complex assay
pIC50: −log10 of the molar value.
measured.endpoint: pIC50

compound | measured.endpoint | reported.value
Cc1ncsc1-c1ccc([C@H](C)NC(=O)[C@@H]2C[C@@H](O)CN2C(=O)[C@@H](NC(=O)CCCC#Cc2ccc(C(=O)Nc3n[nH]c4c3CN(C(=O)N[C@H](CN(C)C)c3ccccc3)C4(C)C)cc2)C(C)(C)C)cc1 | pIC50 | 7.70
CN(C)C[C@@H](NC(=O)N1Cc2c(NC(=O)c3ccc(C(=O)NCCCCCOc4cccc5c4C(=O)N(C4CCC(=O)NC4=O)C5=O)cc3)n[nH]c2C1(C)C)c1ccccc1 (stereo not given in full) | pIC50 | 8.04
CN(C)C[C@@H](NC(=O)N1Cc2c(NC(=O)c3ccc(C(=O)NCCOCCOCCOCCNc4cccc5c4C(=O)N(C4CCC(=O)NC4=O)C5=O)cc3)n[nH]c2C1(C)C)c1ccccc1 (stereo not given in full) | pIC50 | 7.75

1: CN(C)C[C@@H](NC(=O)N1Cc2c(NC(=O)c3ccc(C(=O)NCCOCCNc4cccc5c4C(=O)N(C4CCC(=O)NC4=O)C5=O)cc3)n[nH]c2C1(C)C)c1ccccc1 (stereo not given in full)
2: CN(C)C[C@@H](NC(=O)N1Cc2c(NC(=O)c3ccc(C(=O)NCCCCCCCCOc4cccc5c4C(=O)N(C4CCC(=O)NC4=O)C5=O)cc3)n[nH]c2C1(C)C)c1ccccc1 (stereo not given in full)
// compare measured pIC50, left 1 , right 2 , return larger Reply briefly: the label of your chosen item.
1
(1: 7.95, 2: 7.46)
